Cited source for all entries: patent US8957091B2

target: Smo2 sites (Mus musculus); construct: host or cells: C3H10T1/2; test: Inhibition of C3H10T1/2 differentiation (alkaline phosphatase activity) induced by compound 1 or compound 6; assay type: cell-based; details: response induced by compound 1; read-out: affinity (IC50) for compound 1
Sequence (P56726 33-793): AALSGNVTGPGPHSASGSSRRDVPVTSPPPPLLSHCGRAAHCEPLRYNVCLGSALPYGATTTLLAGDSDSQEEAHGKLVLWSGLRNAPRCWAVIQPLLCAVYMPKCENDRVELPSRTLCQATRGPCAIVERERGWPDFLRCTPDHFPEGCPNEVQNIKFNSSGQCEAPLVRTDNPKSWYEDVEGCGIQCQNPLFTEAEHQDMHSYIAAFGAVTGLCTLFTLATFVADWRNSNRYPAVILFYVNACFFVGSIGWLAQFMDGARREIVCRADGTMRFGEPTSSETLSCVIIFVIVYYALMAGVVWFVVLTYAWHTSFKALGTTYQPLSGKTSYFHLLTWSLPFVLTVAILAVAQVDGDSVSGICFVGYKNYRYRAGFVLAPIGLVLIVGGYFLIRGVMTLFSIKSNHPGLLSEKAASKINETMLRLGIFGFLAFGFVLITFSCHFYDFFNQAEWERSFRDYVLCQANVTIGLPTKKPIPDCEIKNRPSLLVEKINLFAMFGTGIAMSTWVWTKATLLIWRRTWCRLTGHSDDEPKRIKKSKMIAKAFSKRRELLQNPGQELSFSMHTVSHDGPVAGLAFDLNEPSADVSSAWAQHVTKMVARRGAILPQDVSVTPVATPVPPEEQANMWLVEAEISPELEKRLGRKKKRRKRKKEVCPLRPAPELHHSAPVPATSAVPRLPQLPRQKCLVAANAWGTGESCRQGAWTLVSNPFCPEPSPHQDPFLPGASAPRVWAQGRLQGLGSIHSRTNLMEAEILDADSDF
attributeMeasured: pIC50
Give bare numbers, as −log10 of the molar value.

q: If you can, please state the reported pIC50 value of COc1cc(C(=O)NC(=O)Nc2cccc(NC(=O)c3ccccc3)c2)cc(OC)c1OC .
a: 6.49

* * *

Target: Smo2 sites (Mus musculus)
Construct: host or cells: C3H10T1/2
Assay: Inhibition of C3H10T1/2 differentiation (alkaline phosphatase activity) induced by compound 1 or compound 6
Assay type: cell-based
Conditions: ratio of mean IC50 values; Smo1 stimulated by SAG 0.1 μM, Smo2 by compound 1 1 μM
Method: The C3H10T1/2 cells were seeded onto 96-well plates at a density of 5×10^3 cells per well, 24 hours before the addition of the test compounds at a concentration ranging from 10 nM to 10 μM in DMEM culture medium supplemented with 10% of fetal calf serum. The tests were carried out in quadruplicate. […] The alkaline phosphatase in the resulting lysates was then measured according to the method described by Pepinsky et al. (Pepinsky et al. 1998). […]
attributeMeasured: C3H10T1/2 cell differentiation IC50 Smo1/IC50 Smo2
Answers are plain numbers.

Recorded results for 2 compounds are shown here.
| structureNotation | assayResult |
| --- | --- |
| COc1cc(C(=O)NC(=S)Nc2ccc(C)c(NC(=O)c3ccc(-c4ccccc4)cc3)c2)cc(OC)c1OC | 0.9 |
| COc1cc(C(=O)NC(=S)Nc2cccc(NC(=O)c3ccc(-c4ccc(F)cc4)cc3)c2)cc(OC)c1OC | 0.08 |

With those in mind, consider the next compound.
q: If you can, please state the reported C3H10T1/2 cell differentiation IC50 Smo1/IC50 Smo2 value of COc1cccc(CN(C(=O)CC(C)(C)C)[C@H]2C[C@@H](C(=O)N3CCNCC3)N(Cc3ccc4c(c3)OCO4)C2)c1 .
a: 17
